experiment.notes: PPC-1 cell viability loss under TRAIL – PPC-1 cells, ATPLite luminescence, uHTS, TRAIL potentiator project, primary screen (AID 1443)
experimental.setup: PPC-1 cells + TRAIL; at 4 µM unless noted
Out of some 220,000 compounds screened, about 880 (0.4%) were called active.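 Rule for the calls: active = cell killing above 50% in the first pass at 4 µM, then a duplicate retest at 5 µM averaging 50% or more; inactive = the rest.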 The list comes from a sample in which actives are over-represented; it also holds close analogues and randomly drawn compounds.
Labels: active, inactive

> print(dat)
                                    compound     label
 1  O=C(COC(=O)c1ccc(Cl)nc1)NCc1ccc2c(c1)OCO2  inactive
 2               S=c1[nH]nc(/C=C/c2ccccc2)o1  inactive
 3  CCOC(=O)c1c(C)[nH]c2c1-c1ccccc1C(=O)C2=O    active
 4            Cn1c(-c2ccco2)nc2cc3ccccc3cc21    active
 5  O=C(NCCCN1CCN(c2ccc(F)cc2)CC1)Nc1ccc([N+](=O)[O-])cc1  inactive
 6    COc1ccc(-c2ccnc(SCC(=O)N3CCOCC3)n2)cc1  inactive
 7            COc1cc(SC)ccc1C(=O)Nc1nc(C)cs1    active
 8                     Cc1nc2cc3c(cc2s1)OCO3  inactive
 9  COc1cc(OC)c2ccc(=O)oc2c1C(CCN1CCN(c2ccccc2)CC1)c1ccc2c(c1)OCO2 (stereo not given)  inactive
10  COc1ccc(Cl)cc1NC(=O)Cn1nc(-c2ccc(C)cc2)n(C)c1=S  inactive
11  O=C(Nc1ccc(S(=O)(=O)Nc2nccs2)cc1)c1cccc(S(=O)(=O)N2CCOCC2)c1  inactive
12  CNC(=O)NC(=O)C(OC(=O)c1cccc(S(=O)(=O)N2CCCCC2)c1)c1ccccc1 (stereo not given)  inactive
13  Cc1cc(C)c(C)c(S(=O)(=O)N[C@@H](C)C(=O)OC(C)C(=O)NC(N)=O)c1C (stereo not given in full)  inactive
14  COc1ccc(NC(=O)C2CCC(CNc3c(N4CCCCC4)c(=O)c3=O)CC2)c(OC)c1 (stereo not given)  inactive
15         O=C(NNC(=O)c1ccc(Cl)cc1Cl)c1cccs1  inactive
16  COc1cccc(/C=N/NC(=O)c2[nH]nc3c2CCc2ccccc2-3)c1O    active
17                   CN(Cc1ccccc1)Cc1ccccc1F  inactive
18             COc1ccc(C(=O)Nc2nncs2)c(OC)c1  inactive
19   CN1CCN(CC#CCC2(O)c3ccccc3-c3ccccc32)CC1  inactive
20  CN(C)/C=C(/C(=O)c1ccc(Cl)c(Cl)c1)c1nnnn1-c1ccccc1  inactive
21          Cc1ccc(C(=O)NNc2ncnc3ccccc23)cc1  inactive
22  CCOc1ccc(CN2CCN(Cc3ccon3)CC2CCO)cc1 (stereo not given)  inactive
23  COc1cccc(/C=N\NC(=O)C2=NNC(=O)C2C)c1O (stereo not given)  inactive
24  O=C(COC(=O)Cc1ccc(Br)cc1)Nc1c(F)c(F)c(F)c(F)c1F  inactive
25  CCOC(=O)c1c(C)[nH]c(=S)c(C#N)c1-c1ccccc1  inactive
26  CCN1CCC2(CC1)N=C(c1ccc(F)cc1)C(=S)N2C(=O)c1ccc(C)cc1  inactive
27      CCc1ccccc1NC(=O)CSc1nnc(-c2ccncc2)o1  inactive
28  O=C(/C=C\c1cn(-c2ccccc2)nc1-c1cccs1)N1CCOCC1  inactive
29  COc1cccc(/C=N/Nc2cc(C)nc(-c3ccccc3O)n2)c1O  inactive
30  O=C(O)c1ccc(N/N=C/c2cn(-c3ccccc3)nc2-c2cccs2)cc1    active
31   O=C(Cc1cccs1)N/N=C/c1ccc(OCc2ccccc2)cc1  inactive
32  NCCCC[C@@H]1NC(=O)[C@H](CCC(=O)O)NC(=O)c2cc([N+](=O)[O-])cc(I)c2NCC[C@@H](C(N)=O)NC1=O  inactive
33           COc1cc2c(cc1OC)C(=O)NCC(C)(C)O2  inactive
34         Cc1noc(C)c1S(=O)(=O)N(C)Cc1ccccc1  inactive
35  CC(CNC(=O)c1ccc(N)cc1)NC(=O)c1ccc(N)cc1 (stereo not given)  inactive
36  COCCNC(=O)/C(C#N)=C/c1cccc(OCc2ccccc2)c1  inactive
37           COc1cc(SC)ccc1C(=O)Nc1cc(C)ccn1    active
38  O=c1oc(-c2ccccc2NS(=O)(=O)c2ccc(Cl)cc2)nc2ccccc12  inactive
39  O=C(NN1C(=O)C2C(C1=O)C1C=CC2C12CC2)c1ccccc1Cl (stereo not given)  inactive
40  CCOC(=O)C1=C(c2ccc(OC)cc2)C(=O)c2ccccc2C1=O  inactive
41         COc1cc(SC)ccc1C(=O)NCCOc1ccccc1Cl  inactive
42     N=c1n(CCc2ccccc2)c2ccccc2n1Cc1ccccc1F    active
43  COc1ccc(OC)c(NC(=O)N[C@H](Cc2ccccc2)C(=O)NN)c1  inactive
44  COc1ccccc1NC(=O)CCSc1nnc(-c2ccc(O)cc2)o1  inactive
45  O=C(/C=C/c1ccccc1)Oc1coc(CSc2ncccn2)cc1=O  inactive
